From: patent US20180099931A1

Assayed System: F508delCFTR (Homo sapiens, UniProt P13569, DEL508-508)
Construct: expressed in transfected cells; host or cells: CFBE41o- human lung-derived epithelial cells (CFBE4lo-F508delCFTR-HRP), doxycycline-inducible
Sequence (P13569 with tags, fused parts or gaps DEL508-508): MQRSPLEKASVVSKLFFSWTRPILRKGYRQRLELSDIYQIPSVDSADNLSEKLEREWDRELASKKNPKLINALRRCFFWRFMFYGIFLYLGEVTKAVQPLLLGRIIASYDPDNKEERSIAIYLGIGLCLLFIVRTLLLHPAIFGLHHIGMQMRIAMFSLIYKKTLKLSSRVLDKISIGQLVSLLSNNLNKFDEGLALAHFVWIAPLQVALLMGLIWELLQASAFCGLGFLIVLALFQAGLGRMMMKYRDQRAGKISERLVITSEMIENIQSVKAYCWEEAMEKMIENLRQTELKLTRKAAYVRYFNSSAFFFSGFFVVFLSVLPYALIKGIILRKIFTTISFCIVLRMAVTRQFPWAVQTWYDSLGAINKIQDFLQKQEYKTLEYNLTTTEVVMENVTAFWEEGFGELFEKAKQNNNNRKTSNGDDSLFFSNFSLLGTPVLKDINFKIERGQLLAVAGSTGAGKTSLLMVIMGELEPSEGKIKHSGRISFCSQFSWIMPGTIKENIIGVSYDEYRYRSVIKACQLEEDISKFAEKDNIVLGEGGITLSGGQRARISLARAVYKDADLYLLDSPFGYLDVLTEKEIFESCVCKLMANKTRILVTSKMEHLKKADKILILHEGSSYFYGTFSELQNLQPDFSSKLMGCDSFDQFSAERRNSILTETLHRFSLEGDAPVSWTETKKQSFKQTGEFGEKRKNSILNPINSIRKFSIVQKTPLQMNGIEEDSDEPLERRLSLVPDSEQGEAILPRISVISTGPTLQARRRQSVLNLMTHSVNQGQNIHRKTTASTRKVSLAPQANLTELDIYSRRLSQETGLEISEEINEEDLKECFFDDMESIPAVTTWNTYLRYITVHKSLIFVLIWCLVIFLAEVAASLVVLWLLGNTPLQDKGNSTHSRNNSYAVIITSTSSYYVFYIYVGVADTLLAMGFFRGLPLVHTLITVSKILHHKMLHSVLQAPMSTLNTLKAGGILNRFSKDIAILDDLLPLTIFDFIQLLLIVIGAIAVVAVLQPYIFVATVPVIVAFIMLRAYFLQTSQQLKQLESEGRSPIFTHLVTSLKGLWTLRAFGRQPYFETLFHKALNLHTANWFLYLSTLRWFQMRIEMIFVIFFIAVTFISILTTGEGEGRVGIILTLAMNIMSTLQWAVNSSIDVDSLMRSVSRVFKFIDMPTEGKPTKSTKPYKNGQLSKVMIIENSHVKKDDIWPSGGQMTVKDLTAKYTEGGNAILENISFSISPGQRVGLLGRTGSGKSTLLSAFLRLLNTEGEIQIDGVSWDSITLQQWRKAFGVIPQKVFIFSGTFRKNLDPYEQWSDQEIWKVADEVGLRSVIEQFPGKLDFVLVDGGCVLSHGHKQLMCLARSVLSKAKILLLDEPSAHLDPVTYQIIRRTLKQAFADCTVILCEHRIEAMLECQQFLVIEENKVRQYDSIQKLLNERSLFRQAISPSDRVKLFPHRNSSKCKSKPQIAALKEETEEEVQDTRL
Assay Method Text: Cell Surface Expression-Horse Radish Peroxidase (CSE-HRP) Assay
Assay type: cell-based
Run Conditions: test compound without co-corrector; read-out: EC50 (without co-corrector)
Assay Readout: EC50

Molecule	Assayed System	EC50
COc1ccc2cc(C)nc(N[C@H]3[C@H](C(C)(C)C)[C@@H](C(=O)O)N(C(=O)C4CCCCC4)[C@H]3c3ccccc3)c2c1	F508delCFTR (Homo sapiens, UniProt P13569, DEL508-508)	1 to 10 µM
COc1cc(C(F)(F)F)ccc1CN[C@H]1[C@H](C(C)(C)C)[C@@H](C(=O)O)N(C(=O)[C@H]2CCCCO2)[C@H]1c1cccnc1N(C)C	F508delCFTR (Homo sapiens, UniProt P13569, DEL508-508)	1 to 10 µM
COc1nnc(C2CCC2)cc1CN[C@H]1[C@H](C(C)(C)C)[C@@H](C(=O)O)N(C(=O)C2CCCCC2)[C@H]1c1ccccc1	F508delCFTR (Homo sapiens, UniProt P13569, DEL508-508)	1 to 10 µM

input: So what's the measured EC50 for this one? "COc1ccc(C(C)(C)C)cc1CN[C@@H]1[C@@H](C(C)(C)C)[C@@H](C(=O)O)N(C(=O)[C@H](OC)c2ccccc2)[C@H]1c1ccccc1"
output: 1 to 10 µM

input: So what's the measured EC50 for this one? "COc1ccc(Cl)cc1CN[C@@H]1[C@@H](C(C)(C)C)[C@H](C(=O)O)N(C(=O)[C@H](OC)c2ccccc2)[C@@H]1c1ccccc1N(C)C"
output: > 10 µM

input: So what's the measured EC50 for this one? "COc1ncc(C(F)(F)F)cc1CN[C@H]1[C@H](C(C)(C)C)[C@@H](C(=O)O)N(C(=O)C2CCOCC2)[C@H]1c1ccccc1C(C)C"
output: 1 to 10 µM

input: So what's the measured EC50 for this one? "COc1ccc(C2(C)CCC2)cc1CN[C@H]1[C@H](C(C)(C)C)[C@@H](C(=O)O)N(C(=O)[C@@H]2CCCCO2)[C@H]1c1cccnc1N(C)C"
output: 1 to 10 µM

input: So what's the measured EC50 for this one? "COc1ccc(C23CC(C2)C3)cc1CN[C@H]1[C@H](C(C)(C)C)[C@@H](C(=O)O)N(C(=O)OC(C)C)[C@H]1c1cccnc1N(C)C"
output: 1 to 10 µM

input: So what's the measured EC50 for this one? "COc1ccc(S(F)(F)(F)(F)F)cc1CN[C@H]1[C@H](C(C)(C)C)[C@@H](C(=O)O)N(C(=O)OC(C)C)[C@H]1c1cccnc1N(C)C"
output: 1 to 10 µM

input: So what's the measured EC50 for this one? "CC(C)(C)[C@H]1[C@H](NCc2ccc(F)cc2C(F)(F)F)[C@H](c2ccccc2)N(C(=O)C2CCCCC2)[C@@H]1C(=O)O"
output: < 1 µM

input: So what's the measured EC50 for this one? "COc1ccc(Cl)cc1CN[C@H]1[C@H](C(C)(C)C)[C@@H](C(=O)O)N(C(=O)C2CCCCC2)[C@H]1c1ccccc1OC"
output: 1 to 10 µM

input: So what's the measured EC50 for this one? COc1nc(C(C)(C)C)ncc1CN[C@H]1[C@H](C(C)(C)C)[C@@H](C(=O)O)N(C(=O)C2CCCC(F)(F)C2)[C@H]1c1ccccc1 (relative stereo)
output: < 1 µM

input: So what's the measured EC50 for this one? COc1ncc(C2CCC2)cc1CN[C@H]1[C@H](C(C)(C)C)[C@@H](C(=O)O)N(C(=O)C2CCCC(C(F)(F)F)C2)[C@H]1c1ccccc1 (stereo partly shown)
output: 1 to 10 µM

input: So what's the measured EC50 for this one? CC(N[C@@H]1[C@@H](C(C)(C)C)[C@H](C(=O)O)N(C(=O)C2CCCCC2)[C@@H]1c1ccccc1)c1ccc2c(c1)OC(F)(F)O2 (mixture of isomers)
output: > 10 µM

input: So what's the measured EC50 for this one? COc1ccc(C(C)(C)C)cc1CN[C@H]1[C@H](C(C)(C)C)[C@@H](C(=O)O)N(C(=O)[C@H]2[C@H](C(F)(F)F)[C@H]3CC[C@@H]2O3)[C@H]1c1ccccc1 (relative stereo)
output: 1 to 10 µM

input: So what's the measured EC50 for this one? "COc1ccc(C(C)(C)C)cc1CN[C@H]1[C@H](C(C)(C)C)[C@@H](C(=O)O)N(C(=O)c2cn(C)c3ccccc23)[C@H]1c1ccccc1"
output: 1 to 10 µM
